protocol summary: The drug is tested on Eubacterium eligens strain: DSM3376 for biotransformation under anaerobic condition. The drug concentrations were measured over 6 timepoints collected between 0 and 12 hours of incubation by liquid-chromatography-coupled mass spectrometry (LC–MS)
Type: ADME
Parameters: dose 5 uM, timepoint 0, 1.5, 3, 6, 9, 12 hours
run parameters: lachnospira eligens, 5 µM
measure: Bacterial Biotransformation

Please review the entries below; each comes with its answer.
[[record]]
compound = "CCOC(=O)C1=C(COCCN)NC(C)=C(C(=O)OC)C1c1ccccc1Cl (stereo unspecified)"
experimental_result = "Compound NOT metabolized"

[[record]]
compound = "C[C@@H](NCCCc1cccc(C(F)(F)F)c1)c1cccc2ccccc12"
experimental_result = "Compound NOT metabolized"

[[record]]
compound = "C[C@H]1C[C@@H]2[C@H]([C@@H](O)C[C@@]3(C)[C@H]2CC[C@]3(O)C(=O)CO)[C@@]2(C)C=CC(=O)C=C12"
experimental_result = "Compound NOT metabolized"

[[record]]
compound = "CNC(=C[N+](=O)[O-])NCCSCc1ccc(CN(C)C)o1"
experimental_result = "Compound metabolized"


Form: compound = `CCOc1nc2cccc(C(=O)O)c2n1Cc1ccc(-c2ccccc2-c2nnn[nH]2)cc1` ; Bacterial Biotransformation = Compound NOT metabolized

Form: compound = C[C@]12CCC(=O)C=C1CC[C@@H]1[C@@H]2[C@@H](O)C[C@@]2(C)[C@H]1CC[C@]2(O)C(=O)CO [HYDROCORTISONE] ; Bacterial Biotransformation = Compound NOT metabolized

Form: compound = CC(C)NCC(O)COc1ccc(CC(N)=O)cc1 (stereo unspecified) ; Bacterial Biotransformation = Compound NOT metabolized

Form: compound = `C[C@]12C=CC(=O)C=C1CC[C@@H]1[C@@H]2[C@@H](O)C[C@@]2(C)[C@H]1CC[C@]2(O)C(=O)CO` ; Bacterial Biotransformation = Compound NOT metabolized

Form: compound = `Cn1cnc([N+](=O)[O-])c1Sc1ncnc2nc[nH]c12` ; Bacterial Biotransformation = Compound metabolized

Form: compound = `COc1c(C)c2c(c(O)c1C/C=C(\C)CCC(=O)O)C(=O)OC2` ; Bacterial Biotransformation = Compound NOT metabolized

Form: compound = NS(=O)(=O)c1cc(C(=O)O)c(NCc2ccco2)cc1Cl [FUROSEMIDE] ; Bacterial Biotransformation = Compound NOT metabolized

Attribution: ChEMBL document CHEMBL5724806
